- Tested on: Meyerozyma guilliermondii
- ASSAY NOTES: Antifungal activity against Candida guilliermondii T-47 assessed as reduction in fungal cell growth incubated for 24 hrs by MTT based broth double dilution method
- Assay type: functional
- PARTICULARS: T-47, 24 h
Measured MIC values are reported for all entries that follow.
Report only the number, with the unit µg/mL understood.

Param item = CCN(CC)c1ccc2cc(C(=O)NCC(O)(Cn3ccnc3)c3ccc(F)cc3F)c(=O)oc2c1 (racemic) ; retrieve measured MIC.
0.5

Look up MIC: CCC(CC)Oc1ccc2cc(C(=O)NCC(O)(Cn3cncn3)c3ccc(F)cc3F)c(=O)oc2c1 (racemic)
2

# input compound: CCN(CC)c1ccc2cc(C(=O)NCC(O)(Cn3cncn3)c3ccc(F)cc3F)c(=O)oc2c1 (racemic) ; wanted: its MIC
1

Give the measured MIC of Clc1ccc(COC(Cn2ccnc2)c2ccc(Cl)cc2Cl)c(Cl)c1 (stereo unspecified) [MICONAZOLE] .
0.06

Can you look up the measured MIC of CCC(CC)Oc1ccc2cc(C(=O)NCC(O)(Cn3ccnc3)c3ccc(F)cc3F)c(=O)oc2c1 (racemic) for me?
0.125

What MIC value was documented for this compound, O=C(NCC(O)(Cn1cncn1)c1ccc(F)cc1F)c1cc2ccccc2[nH]c1=O (racemic) ?
8

What value of MIC has been recorded for this entry: C[C@@H](c1ncncc1F)[C@](O)(Cn1cncn1)c1ccc(F)cc1F [VORICONAZOLE]
0.06

Please look up its MIC: CCC(C)n1ncn(-c2ccc(N3CCN(c4ccc(OCC5COC(Cn6cncn6)(c6ccc(Cl)cc6Cl)O5)cc4)CC3)cc2)c1=O (racemic) [ITRACONAZOLE]
0.03

Record request: MIC value, item CC[C@@H]([C@H](C)O)n1ncn(-c2ccc(N3CCN(c4ccc(OC[C@@H]5CO[C@@](Cn6cncn6)(c6ccc(F)cc6F)C5)cc4)CC3)cc2)c1=O [POSACONAZOLE]
0.03

State the recorded MIC for this entry: O=C(NCC(O)(Cn1cncn1)c1ccc(F)cc1F)c1cc2ccc(Cl)cc2[nH]c1=O (racemic)
8

What measured MIC goes with COc1ccc2cc(C(=O)NCC(O)(Cn3cncn3)c3ccc(F)cc3F)c(=O)oc2c1 (racemic) ?
1

Requested read-out: MIC. Entry: Clc1ccccc1C(c1ccccc1)(c1ccccc1)n1ccnc1 [CLOTRIMAZOLE]
0.007

Could you tell me which MIC is on file for CCN(CC)c1ccc2cc(C(=O)NCC(O)(Cn3ccnc3)c3ccc(Cl)cc3Cl)c(=O)oc2c1 (racemic) ?
0.125

Please look up its MIC: CCC(CC)Oc1ccc2cc(C(=O)NCC(O)(Cn3ccnc3)c3ccc(Cl)cc3Cl)c(=O)oc2c1 (racemic)
0.25

###

- Test system: HepG2
- ASSAY NOTES: Cytotoxicity against human HepG2 cells assessed as reduction in cell viability at 5 to 50 uM incubated for 24 hrs by XTT assay
- Format: cell-based
- PARTICULARS: hepg2, 24 h
METRIC NAME: Activity

1. OC(Cn1cncn1)(Cn1cncn1)c1ccc(F)cc1F: Non-Toxic
2. CCN(CC)c1ccc2cc(C(=O)NCC(O)(Cn3cncn3)c3ccc(Cl)cc3Cl)c(=O)oc2c1 (racemic): Non-Toxic
3. CCN(CC)c1ccc2cc(C(=O)NCC(O)(Cn3ccnc3)c3ccc(Cl)cc3Cl)c(=O)oc2c1 (racemic): Toxic
4. CC[C@@H]([C@H](C)O)n1ncn(-c2ccc(N3CCN(c4ccc(OC[C@@H]5CO[C@@](Cn6cncn6)(c6ccc(F)cc6F)C5)cc4)CC3)cc2)c1=O: Toxic
5. CCC(CC)Oc1ccc2cc(C(=O)NCC(O)(Cn3cncn3)c3ccc(Cl)cc3Cl)c(=O)oc2c1 (racemic): Non-Toxic

Consider the molecule CC(=O)N1CCN(c2ccc(OCC3COC(Cn4ccnc4)(c4ccc(Cl)cc4Cl)O3)cc2)CC1 (racemic) and give its measured Activity.
Toxic

Quick check: Activity of CCC(CC)Oc1ccc2cc(C(=O)NCC(O)(Cn3ccnc3)c3ccc(Cl)cc3Cl)c(=O)oc2c1 (racemic) ?
Non-Toxic

###

- System: Candida albicans
- ASSAY NOTES: Antifungal activity against Candida albicans SN152 assessed as reduction in fungal cell growth incubated for 24 hrs by MTT based broth double dilution method
- Format: functional
- PARTICULARS: SN152, 24 h
METRIC NAME: log10 MIC (log10 of the value in µg/mL)
Note: values are log10 of MIC expressed in µg/mL.

Recorded results for 3 compounds are shown here.
1. COc1ccc2cc(C(=O)NCC(O)(Cn3cncn3)c3ccc(F)cc3F)c(=O)[nH]c2c1 (racemic): 0.60
2. CC[C@@H]([C@H](C)O)n1ncn(-c2ccc(N3CCN(c4ccc(OC[C@@H]5CO[C@@](Cn6cncn6)(c6ccc(F)cc6F)C5)cc4)CC3)cc2)c1=O [POSACONAZOLE]: -2.15
3. O=C(NCC(O)(Cn1cncn1)c1ccc(F)cc1F)c1cc2ccc(Cl)cc2[nH]c1=O (racemic): -0.30

Here's the next entry for you.
Find the recorded log10 MIC belonging to Clc1ccccc1C(c1ccccc1)(c1ccccc1)n1ccnc1 [CLOTRIMAZOLE] and report it.
-2.15

###

- System: Candida albicans
- ASSAY NOTES: Antifungal activity against Candida albicans SN152 assessed as reduction in fungal cell growth incubated for 24 hrs by MTT based broth double dilution method
- Assay type: functional
- PARTICULARS: SN152, 24 h
METRIC NAME: MIC (µg/mL)
Number only, in µg/mL; omit the unit.

# example entries with known answers
1. CCN(CC)c1ccc2cc(C(=O)NCC(O)(Cn3cncn3)c3ccc(Cl)cc3Cl)c(=O)oc2c1 (racemic): 0.03
2. CCC(C)n1ncn(-c2ccc(N3CCN(c4ccc(OCC5COC(Cn6cncn6)(c6ccc(Cl)cc6Cl)O5)cc4)CC3)cc2)c1=O (racemic): 0.007
3. CCN(CC)c1ccc2cc(C(=O)NCC(O)(Cn3ccnc3)c3ccc(F)cc3F)c(=O)oc2c1 (racemic): 0.06

Name the reported MIC value associated with the molecule CCC(CC)Oc1ccc2cc(C(=O)NCC(O)(Cn3ccnc3)c3ccc(Cl)cc3Cl)c(=O)oc2c1 (racemic)
0.06

Need MIC of COc1ccc2cc(C(=O)NCC(O)(Cn3cncn3)c3ccc(F)cc3F)c(=O)oc2c1 (racemic) , thanks.
0.5

Endpoint output: MIC of CCC(CC)Oc1ccc2cc(C(=O)NCC(O)(Cn3cncn3)c3ccc(Cl)cc3Cl)c(=O)oc2c1 (racemic) . Value?
0.06

Recorded MIC of "C[C@@H](c1ncncc1F)[C@](O)(Cn1cncn1)c1ccc(F)cc1F" , please.
0.007

Find the recorded MIC belonging to O=C(NCC(O)(Cn1cncn1)c1ccc(F)cc1F)c1cc2ccccc2oc1=O (racemic) and report it.
0.25

###

- System: Candida albicans
- ASSAY NOTES: Antifungal activity against Candida albicans SN152 assessed as reduction in fungal cell growth incubated for 24 hrs by MTT based broth double dilution method
- Type: functional
- PARTICULARS: SN152, 24 h
In this section we review reported MIC values for a set of compounds.
Form entry: value (µg/mL) — number only.

The examples below pair each entry with its known result.
1) CCN(CC)c1ccc2cc(C(=O)NCC(O)(Cn3cncn3)c3ccc(F)cc3F)c(=O)oc2c1 (racemic): 0.03
2) CCC(CC)Oc1ccc2cc(C(=O)NCC(O)(Cn3ccnc3)c3ccc(F)cc3F)c(=O)oc2c1 (racemic): 0.03
3) CCC(CC)Oc1ccc2cc(C(=O)NCC(O)(Cn3cncn3)c3ccc(F)cc3F)c(=O)oc2c1 (racemic): 0.25

Fill in the recorded MIC for this compound, with Candida albicans as test system: Clc1ccc(COC(Cn2ccnc2)c2ccc(Cl)cc2Cl)c(Cl)c1 (stereo unspecified) [MICONAZOLE]
0.007

Look up MIC with Candida albicans for this compound: OC(Cn1cncn1)(Cn1cncn1)c1ccc(F)cc1F [FLUCONAZOLE]
0.25
